Returns one of true (1) or false (0); true (1) when logP is >= 2.

- compound_smiles: "CCOP(=S)(OCC)ON=C(C#N)c1csc2ccccc12"
  classification: "true (1)"
- compound_smiles: "CCOP(=S)(OCC)ON=C(C#N)c1ccc(Cl)cc1"
  classification: "false (0)"
- compound_smiles: "COc1ccc(C(C#N)=NOP(=O)(OC(C)C)OC(C)C)cc1OC"
  classification: "false (0)"
- compound_smiles: "CC(C)OP(=O)(O/N=C(/C#N)c1ccccc1)OC(C)C"
  classification: "false (0)"
- compound_smiles: "CC(C)OP(=S)(O/N=C(/C#N)c1ccccc1)OC(C)C"
  classification: "true (1)"
- compound_smiles: "CCOP(=S)(OCC)ON=C(C#N)c1ccc(F)cc1"
  classification: "false (0)"
- compound_smiles: "COP(=O)(OC)O/N=C(/C#N)c1ccccc1"
  classification: "false (0)"
- compound_smiles: "CCCCOP(=O)(OCCCC)ON=C(C#N)c1csc2ccccc12"
  classification: "true (1)"
- compound_smiles: "CC(C)OP(=O)(ON=C(C#N)c1csc2ccccc12)OC(C)C"
  classification: "false (0)"
- compound_smiles: "COP(=O)(OC)ON=C(C#N)c1ccc(F)cc1"
  classification: "false (0)"
- compound_smiles: "CCCOP(=O)(OCCC)ON=C(C#N)c1csc2ccccc12"
  classification: "false (0)"
- compound_smiles: "COP(=O)(OC)ON=C(C#N)c1csc2ccccc12"
  classification: "false (0)"
